test system: OVCAR-3 ovarian; test: NCI-60 one-dose screen, 48 h; conditions: 10 µM unless noted
The panel holds about 83,000 compounds, 20% with a hit somewhere; the sample as a whole holds those more often. Calls of active or inactive are those of the source. How the source made its calls: active means growth percent below 10; inactive means the rest.
# valid calls are Y = active, N = inactive; nothing else

These recorded examples may help you get a feel for the data.
CCOC(=O)c1nn(C2CCCCO2)c2ccc(NS(=O)(=O)c3ccc(C)cc3)cc12 (centres undefined) | N
C#CCC(C(=O)OCC)C(=O)OCC | N
CCCCCCCCN(CCCCCCCC)CC(O)c1ccc(Cl)c(C)c1Cl (centres undefined) | N
CC1(C)C(=NO)C(C)(C)C1=NO | N
COc1ccc(N(c2nc(-c3ccc([N+](=O)[O-])cc3)cs2)C(C)C)cc1 | N

Exercise: Recorded test call requested for Cc1cccc(C[C@H](NC(=O)Nc2ccc(Cl)cc2F)C(=O)N[C@@H]2C(=O)N3C[C@H](OC(=O)CCN(C)C)C[C@H]3C(=O)N3CCCC[C@H]3C(=O)N[C@@H](C)C(=O)N3C[C@H](C)C[C@H]3C(=O)O[C@H]2C)c1
Solution: Y

Exercise: Could you check what this test reported for CC(C)(C)OC(=O)N1C=C/C(=C\Cn2cc(-c3ccccc3)nn2)CC1 ?
Solution: N

Exercise: GET /call?item= COc1ccc2c3ccnc(C(F)(F)F)c3n(CCCCN)c2c1 returns the recorded outcome of this test.
Solution: N

Exercise: # outcome recorded in this test, key = NS(=O)(=O)c1ccc(CCN2C(=O)/C(=C\c3ccccc3)C=C2c2ccc(Cl)cc2)cc1
Solution: N
